- method description: Stability of compound in rat liver microsomes assessed as parent compound remaining at 1 uM measured at 10 mins in presence of NADPH
- Assay type: ADME, Microsome
- conditions used: liver microsomes, read-out: Stabilty
readout label: remaining at 10 min, 1 µM (%)

Name the recorded remaining at 10 min, 1 µM of the compound listed here: COc1cc(O)c([C@@H]2O[C@H](CO)C(F)(F)[C@H](O)[C@H]2O)cc1Cc1ccc2c(c1)CCO2 70

For the compound COc1cc(O)c([C@@H]2O[C@H](CO)C(F)(F)[C@H](O)[C@H]2O)cc1Cc1cc2ccccc2s1 , report remaining at 10 min, 1 µM. 98

Find the measured remaining at 10 min, 1 µM of COc1cc(O)c([C@@H]2O[C@H](CO)C(F)(F)[C@H](O)[C@H]2O)cc1Cc1ccc2c(c1)CCCO2 and report it. 57

Please report the measured remaining at 10 min, 1 µM for COc1cc(O)c([C@@H]2O[C@H](CO)[C@@](C)(F)[C@H](O)[C@H]2O)cc1Cc1ccc2c(c1)OCCO2 101

A = OC[C@H]1O[C@@H](c2cc(Cc3ccc4c(c3)OCCO4)c(Cl)cc2O)[C@H](O)[C@@H](O)C1(F)F
B = COc1cc(O)c([C@@H]2O[C@H](CO)C(F)(F)[C@H](O)[C@H]2O)cc1Cc1ccc2c(c1)OCCO2
Which numeric remaining at 10 min, 1 µM is bigger, that of A or that of B ? Response format: the label of the selected entry. B
(B: 26%, A: 18%)
